Please provide measured koff for the entries that follow.
subject_of_test: T1, recombinant human IL1RAP protein, extracellular domain His-tagged (Sino Biological, Cat #10121-H08H) (human, UniProt Q9NPH3 21-367)
T1 construct: extracellular domain; Bought protein; The Octet analyte is printed as huIL1RAP-His (Sino Biological, lot MB08MA1301) without a catalogue number; also called huIL1RAP-His; hIL1RAP; not shown: His tag
T1 sequence (looked up): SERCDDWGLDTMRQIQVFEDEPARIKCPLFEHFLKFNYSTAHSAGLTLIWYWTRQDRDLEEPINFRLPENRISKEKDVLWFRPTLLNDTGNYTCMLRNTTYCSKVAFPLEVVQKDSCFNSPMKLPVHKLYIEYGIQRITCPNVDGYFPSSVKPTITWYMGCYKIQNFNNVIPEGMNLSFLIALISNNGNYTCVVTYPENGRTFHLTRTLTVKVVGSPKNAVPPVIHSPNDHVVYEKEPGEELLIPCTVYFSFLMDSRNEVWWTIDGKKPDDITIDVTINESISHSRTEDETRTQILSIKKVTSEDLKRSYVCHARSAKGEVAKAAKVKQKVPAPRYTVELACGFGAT
procedure_text: Octet BLI; mAb captured on anti-mouse IgG Fc sensor; huIL1RAP-His analyte
Answers are plain numbers, in s⁻¹.

* STLX2025 (antibody, V domains shown, Purified from hybridoma of immunized Alivamab mice; intact IgG; captured on anti-mouse IgG Fc sensors in Octet; kappa light chain; also called 74804_25H09A) VH: QVQLVQSGAEVKKPGSSVKVSCKASGDTFSNYAITWVRQAPGQGLEWIVGFSPIFGTANYAQKFQGRVTITADKSTSTAYMELSSLISEDTAVYYCAWGSGNFNWFDPWGQGTLVTVSS VL: AIRMTQSPSSFSASTGDRVTITCRASQGISSYLAWYQQKPGKAPKLLIYAASTLQSGVPSRFSGSGSGTDFTLTISSLQSEDFATYYCQQYYSYPLTFGGGTKVEIK | 0.000337
* STLX2043 (antibody, V domains shown, Purified from hybridoma of immunized Alivamab mice; intact IgG; captured on anti-mouse IgG Fc sensors in Octet; kappa light chain; also called 74804_43F04A) VH: QVQLLQSGAEVKKPGSSVKVSCKASGGTFSIYAIDWVRQAPGQGLEWMGGIIPIFGTENSAQNFQGRITITADKSTNTAYMELSSLRSEDTAVYYCARNGATSDAFDIWGQGTMVTVFS VL: EIVLTQSPGTLSLSPGERATLSCRASLSVSSNYLAWFQQRPGQAPRLLIYGVSRRATGIPDRFSGSGSGTDFTLTISRLEPEDFAVYYCQQYGSSPLTFGGGTKVEIK | 0.000149
* STLX2051 (antibody, V domains shown, Purified from hybridoma of immunized Alivamab mice; intact IgG; captured on anti-mouse IgG Fc sensors in Octet; kappa light chain; also called 74804_51C10A) VH: QVQLLQSGAEVKKPGSSVKVSCKASGGTFNIYAIDWVRQAPGQGLEWMGGIIPIFGTANSAQKFQGRVTITADKSTNTAYMELSSLRSEDTAVYYCARNGATSDAFDIWGQGTMVTVSS VL: EIVLTQSPGTLSLSPGERATLSCRASQSVSSNYLAWFQQRPGQAPRLLIYGVSRRATGIPDRFSGSGSGTDFTLTISRLEPEDFAVYYCQQYGSSPLTFGGGTKVEIK | 0.000301

Ask: Answer with reported koff of STLX2027 (antibody, V domains shown, Purified from hybridoma of immunized Alivamab mice; intact IgG; captured on anti-mouse IgG Fc sensors in Octet; lambda light chain; also called 74804_27I24A) VH: EVQLVESGGGLVKPGGSLRLSCAASGFTFITYSMNWVRQAPGKGLEWVSSISSISSYIYYADSVKGRFTISRDNAKNSLYLQMDSLRAEDSAVYYCAREGIVGPTGYFDSWGQGTLVTVSS VL: QSVLTQPPSVSAAPGQKVTISCSGSSSNIGNHYVSWYQQLPGTAPKLLIYDNNKRPSGIPDRFSGSKSGTSATLGITGLQTGDEADYYCGTWDSRLSAYWVFGGGTKLTVL
Result: 0.000747

Entry source: patent US20240392013A1
